- assay_explanation: qHTS for inhibitors of binding or entry into cells for Marburg Virus
- setup_conditions: Marburg virus pseudotyped entry inhibition, cell reporter; series mostly up to 37.8 µM
The whole screen tested about 300,000 compounds, of which about 5,400 (1.8%) were called active. Another 28% or so got no clear call; they are omitted. Calls come from the whole dose curve; tested in HEK293 cells. The entries come from a sample that favours actives as a whole.
Classes used: active, inactive

[
  {
    "compound": "CCCCCC(=O)Nc1ccc(C(=O)N/N=C/c2ccc([N+](=O)[O-])cc2)cc1",
    "qualitative_label": "inactive"
  },
  {
    "compound": "CC(C)(C)CC(C)(C)NCC(O)COCCOc1ccc(Br)cc1 (stereo not drawn)",
    "qualitative_label": "active"
  },
  {
    "compound": "Cc1ccc(-c2cc(N)on2)cc1",
    "qualitative_label": "inactive"
  },
  {
    "compound": "Cc1nc(-c2ccc([N+](=O)[O-])cc2)c(-c2ccccc2)o1",
    "qualitative_label": "inactive"
  },
  {
    "compound": "COc1ccc(Br)cc1CN(C)C(=O)C1CC(=O)N(C2CCCC2)C1 (stereo not drawn)",
    "qualitative_label": "inactive"
  },
  {
    "compound": "COc1ccc(-c2ccc(Nc3ccc(S(=O)(=O)N4CCCC4)cc3)nn2)cc1OC",
    "qualitative_label": "active"
  },
  {
    "compound": "CC(C)(C)NCc1cc(Br)ccc1OC1CCCC1",
    "qualitative_label": "active"
  },
  {
    "compound": "Cc1ccc(-c2cn3cc(C)ccc3n2)cc1",
    "qualitative_label": "active"
  },
  {
    "compound": "COC(=O)Nc1ccc(S(=O)(=O)Nc2cc(OC)nc(OC)n2)cc1",
    "qualitative_label": "inactive"
  },
  {
    "compound": "COc1ccccc1N1CCC(N2CCN(CC(C)(C)C)C(CCO)C2)CC1 (stereo not drawn)",
    "qualitative_label": "inactive"
  },
  {
    "compound": "Cc1cc(O)cc(O)c1C(=O)Cc1cnn(-c2ccccc2)c1",
    "qualitative_label": "inactive"
  },
  {
    "compound": "COCC(C)NCc1cc(Br)ccc1OC (stereo not drawn)",
    "qualitative_label": "inactive"
  },
  {
    "compound": "COc1ccc(S(=O)(=O)Nc2ccc(S(=O)(=O)N3CCCCC3)cc2)cc1OC",
    "qualitative_label": "inactive"
  },
  {
    "compound": "O=C1N=CC(F)C(=O)N1 (stereo not drawn)",
    "qualitative_label": "inactive"
  },
  {
    "compound": "COc1ccc(OCC(O)CNCCNc2nccc(C(F)(F)F)n2)cc1 (stereo not drawn)",
    "qualitative_label": "inactive"
  },
  {
    "compound": "COC(=O)C1=C(C)NC(=S)NC1c1ccc(OCC(=O)N2CC(C)OC(C)C2)c(OC)c1 (stereo not drawn)",
    "qualitative_label": "inactive"
  },
  {
    "compound": "Cc1noc(COc2ccccc2OCC(O)CNC(C)(C)C)n1 (stereo not drawn)",
    "qualitative_label": "inactive"
  },
  {
    "compound": "CCCCCCCCn1c2c(c(=N)c3c1CCC3)CCCC2",
    "qualitative_label": "active"
  },
  {
    "compound": "Cc1ccc(CS(=O)Cc2ccc(C(=O)N3CCOCC3)o2)cc1 (stereo not drawn)",
    "qualitative_label": "inactive"
  },
  {
    "compound": "Cc1ccc(OCC(=O)N/N=C/c2ccncc2)cc1",
    "qualitative_label": "inactive"
  },
  {
    "compound": "O=C(c1ccc2c(c1)N(Cc1ccccc1)C(=O)c1ccccc1S2(=O)=O)N1CCCC1",
    "qualitative_label": "inactive"
  },
  {
    "compound": "CCOC(=O)Cc1[nH]nc2c1[C@H](c1cc(OC)ccc1OC)C(C#N)=C(N)O2",
    "qualitative_label": "inactive"
  },
  {
    "compound": "CCN(Cc1ccccc1)C(=O)Cc1ccc(OC)c(S(=O)(=O)N2CCOCC2)c1",
    "qualitative_label": "inactive"
  }
]

----------
- assay_explanation: qHTS for inhibitors of binding or entry into cells for Marburg Virus
- setup_conditions: Marburg virus pseudotyped entry inhibition, cell reporter; series mostly up to 37.8 µM
Hit rate of the full screen: of about 300,000 compounds, about 5,400 (1.8%) were called active. Roughly 28% stayed inconclusive and do not appear here. Calls follow the shape of the full dose curve; tested in HEK293 cells. For the sample, actives were picked, then their nearest neighbours and some compounds at random.
Classes used: True (active), False (inactive)

[
  {
    "record_smiles": "Cc1ccc(NC(=O)CSCC(=O)Nc2sccc2C#N)cc1",
    "qualitative_label": "False"
  },
  {
    "record_smiles": "CCCc1cc(=O)[nH]c(SCC(=O)Nc2ccc(S(=O)(=O)N3CCCC3)cc2)n1",
    "qualitative_label": "False"
  },
  {
    "record_smiles": "Cc1csc(SCC(=O)Nc2sccc2C#N)n1",
    "qualitative_label": "True"
  },
  {
    "record_smiles": "CCOC(=O)c1sc2nc(CSCC(=O)OCc3ccc(C(=O)OC)o3)[nH]c(=O)c2c1C",
    "qualitative_label": "False"
  },
  {
    "record_smiles": "O=C(O)C[C@H](C(=O)OC[C@H]1CCCO1)N1CCOCC1",
    "qualitative_label": "False"
  },
  {
    "record_smiles": "CCOC(=O)C1CCN(c2nc3ccccc3nc2[C@@H](C#N)C(=O)OC(C)C)CC1",
    "qualitative_label": "False"
  },
  {
    "record_smiles": "COc1ccc(C)cc1NC(=S)N1CCOCC1",
    "qualitative_label": "False"
  },
  {
    "record_smiles": "Cc1cccc(C)c1Nc1nnc(SCC(=O)Nc2sccc2C#N)s1",
    "qualitative_label": "False"
  },
  {
    "record_smiles": "CCOC(=O)c1sc2nc(CSc3ccccc3)[nH]c(=O)c2c1C",
    "qualitative_label": "True"
  },
  {
    "record_smiles": "Cc1ccc(S(=O)(=O)NCC(=O)NNC(=O)c2ccc(Br)cc2)cc1C",
    "qualitative_label": "False"
  },
  {
    "record_smiles": "COc1cccc(/C=N/Nc2cc(C)nc(-c3ccccc3O)n2)c1O",
    "qualitative_label": "True"
  }
]

----------
- assay_explanation: qHTS for inhibitors of binding or entry into cells for Marburg Virus
- setup_conditions: Marburg virus pseudotyped entry inhibition, cell reporter; series mostly up to 37.8 µM
In all, about 300,000 compounds went through this assay and about 5,400 (1.8%) were called active. Roughly 28% stayed inconclusive and do not appear here. The call rests on the fitted dose curve; tested in HEK293 cells. Only a selection was taken, and actives are over-represented in it overall. Non-standard residues stand in square brackets, D forms with d. Residues, ends and D or L forms follow the SMILES beside them. ξ: configuration not given here. Ac5c = NC1(C(=O)O)CCCC1; ξS = NC(CO)C(=O)O
Classes used: y = active, n = inactive

[
  {
    "compound": "CCn1cc(CN2CCC(C(=O)Nc3cccc(-c4cccc(Cl)c4)c3)CC2)cn1",
    "qualitative_label": "y"
  },
  {
    "compound": "CCOC(=O)C(CO)NC(=O)C1(NC(C)=O)CCCC1 (configuration not stated) (Ac-[Ac5c]-[ξS]-OEt)",
    "qualitative_label": "n"
  },
  {
    "compound": "CCOC(=O)c1cn(Cc2cccc(C)c2)nn1",
    "qualitative_label": "y"
  },
  {
    "compound": "Oc1ccccc1N1CCN(C(=S)NCc2ccccc2)CC1",
    "qualitative_label": "n"
  },
  {
    "compound": "COc1cc(NC(=O)CSc2ccc(-c3cccnc3)nn2)cc(OC)c1",
    "qualitative_label": "n"
  },
  {
    "compound": "Cc1cccc(-c2nnc(SCC(=O)O)n2Cc2ccccc2)c1",
    "qualitative_label": "n"
  },
  {
    "compound": "O=C(COC(=O)c1ccccc1C(=O)N1CCN(c2ccccc2)CC1)NCc1ccccc1",
    "qualitative_label": "n"
  },
  {
    "compound": "COc1ccc2nc(/N=C(\\N)NC(=O)Nc3ccccc3)nc(C)c2c1",
    "qualitative_label": "n"
  },
  {
    "compound": "COc1ccc(S(=O)(=O)N2CCN(c3cnccn3)CC2)cc1",
    "qualitative_label": "n"
  },
  {
    "compound": "O=C(CN1CCc2ccccc2C1)Nc1cccc(S(=O)(=O)N2CCOCC2)c1",
    "qualitative_label": "n"
  },
  {
    "compound": "CC/C(=C\\c1ccc(Cl)cc1)c1ccncc1",
    "qualitative_label": "n"
  },
  {
    "compound": "COc1ccc(C)cc1NC(=O)CSc1nnc2ccc(-c3ccccn3)nn12",
    "qualitative_label": "n"
  },
  {
    "compound": "Cc1c(NC(=O)Nc2cccc([N+](=O)[O-])c2)c(=O)n(-c2ccccc2)n1C",
    "qualitative_label": "n"
  },
  {
    "compound": "COc1cccc(N(CC(=O)NC2CCCCCC2)S(=O)(=O)c2ccccc2)c1",
    "qualitative_label": "n"
  },
  {
    "compound": "Cc1ccc2nc(SCC(=O)N3CCN(c4ccccc4)CC3)nc(=O)n2c1",
    "qualitative_label": "n"
  },
  {
    "compound": "Cc1nc(/N=C(\\N)NC(=O)NC2CCCCC2)nc2ccccc12",
    "qualitative_label": "y"
  },
  {
    "compound": "COc1cc(OC)cc(-c2c(-c3cccs3)c3cc(-c4ccc(OC)cc4F)ccc3n2C)c1",
    "qualitative_label": "n"
  },
  {
    "compound": "CCOc1cc(C=NNC(=O)CCCC(=O)NN=Cc2ccc(O)c(OCC)c2)ccc1O",
    "qualitative_label": "n"
  },
  {
    "compound": "CC(NC(=O)c1ccccc1)C(=O)OCC(=O)Nc1cccc(S(=O)(=O)N2CCCC2)c1 (configuration not stated)",
    "qualitative_label": "n"
  },
  {
    "compound": "O=C(NNC(=O)C(O)c1ccccc1)NC1CCCCC1 (configuration not stated)",
    "qualitative_label": "n"
  },
  {
    "compound": "COc1ccc(N=C2C=CC(=O)O2)cc1",
    "qualitative_label": "n"
  },
  {
    "compound": "CN1CCN(C(=O)C(=O)c2cn(CC(=O)N3CCCC3)c3ccccc23)CC1",
    "qualitative_label": "n"
  }
]
